- experimentDescription: Acute Toxicity Test in Rat
- conditionsUsed: in vivo, po
observable: LD50 at 24 h (mg/kg)
// note: answer is a bare numeric in mg/kg

Quick check: LD50 at 24 h of Cc1ccccc1-n1c(C)nc2ccccc2c1=O [Methaqualone, 2-methyl-3-(o-tolyl)-4-quinazolone, reference compound] ? 440

###

I'd be grateful if you could share measured LD50 at 24 h for these entries.
- experimentDescription: Acute Toxicity Tests in mouse
- conditionsUsed: in vivo, ip
// note: answer is a bare numeric in mg/kg

Quick check: LD50 at 24 h of Cc1nc2ccccc2c(=O)n1-c1ccccc1C#N.Cl ? 570

Can you check Cc1ccccc1-n1c(C)nc2ccccc2c1=O [Methaqualone, 2-methyl-3-(o-tolyl)-4-quinazolone, reference compound] next? 550

###

- experimentDescription: Acute Toxicity Tests in mouse
- conditionsUsed: in vivo, po
observable: LD50 at 24 h

Quick check: LD50 at 24 h of Cc1nc2ccccc2c(=O)n1-c1ccccc1C#N.Cl ? 1600 mg/kg

Can you check Cc1ccccc1-n1c(C)nc2ccccc2c1=O [Methaqualone, 2-methyl-3-(o-tolyl)-4-quinazolone, reference compound] next? 1700 mg/kg
